The measurements presented in this section are drawn from ChEMBL document CHEMBL4680171.

- METHOD_SUMMARY: Selectivity index, ratio of maximum non-toxic concentration for human Caco-2 cells to MIC for antifungal activity against Cryptococcus gattii NR43209
- Assay type: toxicity
- STUDY_CONDITIONS: read-out: Selectivity Index
PARAMETER_MEASURED: selectivity ratio

In [3]: df
Out[3]:
                                   compound  observed
0  Cc1nc(-c2ccc(C(C)(C)C)cc2)sc1-c1nnc(N[C@@H]2CCCC[C@@H]2N)o1 (relative stereo)      ≤ 64

---

- METHOD_SUMMARY: Selectivity index, ratio of maximum non-toxic concentration for human Caco-2 cells to MIC for antifungal activity against Candida glabrata ATCC MYA-2950
- Assay type: toxicity
- STUDY_CONDITIONS: read-out: Selectivity Index
PARAMETER_MEASURED: selectivity ratio

In [3]: df
Out[3]:
                                   molecule  parameter_measured  observed
0  Cc1nc(-c2ccc(C(C)(C)C)cc2)sc1-c1nnc(N[C@@H]2CCCC[C@@H]2N)o1 (relative stereo)   selectivity ratio      ≤ 64
